FYI, the data here is from PubChem BioAssay (NCI).

Test system: HOP-92 NSCLC
Assay: NCI tumour cell line growth inhibition, 48 h; in the data active means GI50 below about 0.43 µM; inactive means the rest
Labels: 1 (yes) for active, 0 (no) for inactive

• CCCCCC[C@@H](C)NC(=O)c1ccc(Nc2nc3ccccc3c3occc23)cc1 = 0 (no)
• O=C(Nc1ccc(F)cc1)Nc1ccc(Br)c(C(F)(F)F)c1 = 0 (no)
• NC(N)=NC(N)=NCCCc1ccco1 = 0 (no)
• O=C(CI)Nc1ccc(O)c2ccccc12 = 0 (no)
• C=C1C(=O)O[C@H]2[C@H]1CC/C(Cn1cc(-c3ccc(F)cc3)nn1)=C\CC[C@@]1(C)O[C@@H]21 = 1 (yes)
• COc1cc(C(=O)O[C@H](C(=O)NCCN(C)CCNC(=O)[C@@H](OC(=O)c2cc(OC)cc3c(C)cccc23)[C@]2(C)CO2)[C@]2(C)CO2)c2cccc(C)c2c1 = 1 (yes)
• CCC1(OC(=O)CN)C(=O)OCc2c1cc1n(c2=O)Cc2cc3ccccc3nc2-1 (centres undefined) = 1 (yes)
• CC(C)=CC(=O)N[C@H]1CC[C@]2(C)C3CC[C@]4(C)C(C(C)N(C)C)=CCC4C3CCC2[C@H]1O (some centres undefined) = 0 (no)
• Cn1c(-c2ccccc2)c(/C=C/C2=[N+](C)c3ccccc3C2(C)C)c2ccccc21 = 0 (no)
